Exercise: state measured Ki for each of the compounds provided.
test-system: Aromatase (Homo sapiens, UniProt P11511)
Sequence (P11511 whole entry): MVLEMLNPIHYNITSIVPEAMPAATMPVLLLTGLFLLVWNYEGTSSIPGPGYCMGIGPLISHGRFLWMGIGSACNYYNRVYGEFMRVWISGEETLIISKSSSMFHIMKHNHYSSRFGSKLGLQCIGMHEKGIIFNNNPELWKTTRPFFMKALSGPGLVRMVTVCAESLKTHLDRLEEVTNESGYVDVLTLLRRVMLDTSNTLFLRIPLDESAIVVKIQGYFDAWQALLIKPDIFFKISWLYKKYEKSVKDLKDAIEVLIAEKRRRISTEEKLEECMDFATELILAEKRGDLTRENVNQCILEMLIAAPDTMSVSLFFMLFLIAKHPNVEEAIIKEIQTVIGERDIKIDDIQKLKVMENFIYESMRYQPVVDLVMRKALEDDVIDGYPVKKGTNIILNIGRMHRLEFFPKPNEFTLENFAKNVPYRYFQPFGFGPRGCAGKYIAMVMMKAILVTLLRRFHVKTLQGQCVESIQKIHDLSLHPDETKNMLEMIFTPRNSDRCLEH
Record the result as number plus unit.

Req: Form field - read-out: Ki; system: Aromatase (Homo sapiens, UniProt P11511); submitted item: `C[C@]12CCC(=O)C=C1C[C@@H](SCc1ccccc1)[C@@H]1[C@@H]2CC[C@]2(C)C(=O)CC[C@@H]12`
Resp: 69 nM

Req: Form field - read-out: Ki; system: Aromatase (Homo sapiens, UniProt P11511); submitted item: `COc1ccc(CS[C@@H]2CC3=CC(=O)CC[C@]3(C)[C@H]3CC[C@]4(C)C(=O)CC[C@H]4[C@H]23)cc1`
Resp: 31 nM

Req: Form field - read-out: Ki; system: Aromatase (Homo sapiens, UniProt P11511); submitted item: `CCCCS[C@@H]1CC2=CC(=O)CC[C@]2(C)[C@H]2CC[C@]3(C)C(=O)CC[C@H]3[C@H]12`
Resp: 57 nM

Req: Form field - read-out: Ki; system: Aromatase (Homo sapiens, UniProt P11511); submitted item: `C[C@]12CCC(=O)C=C1C[C@@H](SCCc1ccccc1)[C@@H]1[C@@H]2CC[C@]2(C)C(=O)CC[C@@H]12`
Resp: 62 nM

Req: Form field - read-out: Ki; system: Aromatase (Homo sapiens, UniProt P11511); submitted item: `C[C@]12CCC(=O)C=C1C[C@@H](Sc1ccc(N)cc1)[C@@H]1[C@@H]2CC[C@]2(C)C(=O)CC[C@@H]12`
Resp: 18 nM
